- Test system: P388 leukemia ip, CD2F1 mice, survival T/C
- ASSAY_PROTOCOL: NCI In Vivo Anticancer Drug Screen. Data for tumor model P388 Leukemia (intraperitoneal) in CD2F1 (CDF1) mice
- CONDITION_DESCRIPTION: endpoint: median survival time; dose: 200.0 mg/kg/injection; schedule: Q04DX003 (ip); vehicle: saline with Tween-80; higher = longer survival
Inconclusive results and toxic doses are left out.
ASSAY_ENDPOINT: T/C

- CCCCOC(=O)CSSCC(=O)OCCCC: 109 % of control
- NC(C(=O)O)C(CC(=O)O)c1ccccc1 (stereo not drawn): 108 % of control

Quick one: T/C for O=C(Nc1ccccc1O)/C(Cl)=C/Cl ? 120 % of control

Return reported T/C; argument: Cc1ccc(NC(=O)Oc2ccc(Br)cc2Br)c([N+](=O)[O-])c1 99 % of control

# T/C lookup, item CCNNC(=O)[C@@H]1[C@H](c2cc(OC)c(OC)c(OC)c2)c2cc3c(cc2[C@H](O)[C@H]1CO)OCO3 113 % of control

So what's the measured T/C for this one? O=S(CF)c1ccc(Cl)cc1 (stereo not drawn) 102 % of control

Would you mind telling me what T/C value was observed for COc1ccc(CSCc2c(CSCc3ccc(OC)c(OC)c3)c(CSCc3ccc(OC)c(OC)c3)c(CSCc3ccc(OC)c(OC)c3)c(CSCc3ccc(OC)c(OC)c3)c2CSCc2ccc(OC)c(OC)c2)cc1OC ? 90 % of control

I am curious: what T/C value has been reported for Nc1nc(N)c2[nH]cnc2n1 ? 108 % of control

###

- Tested on: P388 leukemia ip, CD2F1 mice, survival T/C
- ASSAY_PROTOCOL: NCI In Vivo Anticancer Drug Screen. Data for tumor model P388 Leukemia (intraperitoneal) in CD2F1 (CDF1) mice
- CONDITION_DESCRIPTION: endpoint: median survival time; dose: 50.0 mg/kg/injection; schedule: Q01DX009 (ip); vehicle: saline with Tween-80; higher = longer survival
Inconclusive results and toxic doses are left out.
ASSAY_ENDPOINT: T/C

• O=C(/C=C/c1ccc(OCc2ccccc2)cc1)c1ccc([N+](=O)[O-])cc1 = 99 % of control
• CO[C@H]1/C=C/O[C@@]2(C)Oc3c(C)c(O)c4c(O)c(c(/C=N/N5CCN(C)CC5)c(O)c4c3C2=O)NC(=O)/C(C)=C\C=C\[C@H](C)[C@H](O)[C@@H](C)[C@@H](O)[C@@H](C)[C@H](OC(C)=O)[C@@H]1C = 100 % of control
• c1ccc(Cc2ccccc2)cc1 = 105 % of control

Consider now this further molecule.
Entry Cn1c(=O)c2[nH]cnc2n(C)c1=O (tested in a mixture with another compound) : reported T/C = ? 104 % of control

###

- System: P388 leukemia ip, CD2F1 mice, survival T/C
- ASSAY_PROTOCOL: NCI In Vivo Anticancer Drug Screen. Data for tumor model P388 Leukemia (intraperitoneal) in CD2F1 (CDF1) mice
- CONDITION_DESCRIPTION: endpoint: median survival time; dose: 50.0 mg/kg/injection; schedule: Q01DX009 (ip); vehicle: saline with Tween-80; higher = longer survival
Toxic doses and inconclusive results are not listed.
Each entry below lists one item and its recorded T/C value.

* CCCCCCC(=O)/C=C/c1cccc(OCc2ccc(Cl)c(Cl)c2)c1 | 115 % of control
* COc1cc(Br)cc(OC)c1N=Cc1ccccc1 | 102 % of control
* CC1(C)OC1(C)C | 100 % of control
* COc1cc2ccnc(/C=N\NC(N)=S)c2cc1OC | 101 % of control

I'd like to know its T/C. The compound in question is CC(C)(C)C(=O)CS(=O)(=O)CC(=O)C(C)(C)C 108 % of control

Which T/C is listed for CCCC[P+](CCCC)(CCCC)CC(=O)O ? 100 % of control

What measured T/C goes with O=C1/C(=C/c2cccc3ccccc23)SC(=S)N1Cc1ccco1 ? 92 % of control

Query (compound): CC(C)=CCc1c2c(c(O)c3c(=O)c(-c4ccc(O)cc4O)coc13)C=CC(C)(C)O2 ; field requested: T/C 102 % of control

Data request, read-out T/C, for O=C(O)c1c(Cl)c(Cl)c(Cl)c(Cl)c1C(=O)OCC1CCCO1 (stereo unspecified) 90 % of control

Which T/C value is on record for CC[N]1c2cc(C(C)(C)C)cc(C(C)(C)C)c2[O][Sb]1([c]1ccccc1)([c]1ccccc1)[c]1ccccc1 ? 98 % of control

Need T/C of CCCCC/C=C/C/C=C\CCCCCCCC(=O)NC(Cc1ccc(C)cc1)c1ccccc1 (stereo unspecified) , thanks. 98 % of control

###

- Test system: P388 leukemia ip, CD2F1 mice, survival T/C
- ASSAY_PROTOCOL: NCI In Vivo Anticancer Drug Screen. Data for tumor model P388 Leukemia (intraperitoneal) in CD2F1 (CDF1) mice
- CONDITION_DESCRIPTION: endpoint: median survival time; dose: 12.5 mg/kg/injection; schedule: Q01DX009 (ip); vehicle: suspension in saline
Inconclusive results and toxic doses are left out. Rule for the calls: active = survival T/C of 150% or more; inactive = T/C below 125% in these data.
Reply using exactly one outcome from active, inactive

Observe how each entry below is paired with its result.
• Cc1c2ccncc2c(C)c2c1[nH]c1ccc(O)cc12 = active
• O=C(O)C1Cc2c([nH]c3ccccc23)CN1 (stereo not given) = inactive
• O=C(Nc1ncc([N+](=O)[O-])s1)c1cccnc1 = inactive

GET /call?item= O=c1[nH]c(=O)n(C(c2ccccc2)c2ccccc2)cc1F returns the recorded outcome of this test. inactive

Each molecule tested received a call. Report the one for Cc1ccc(S(=O)(=O)c2ccc(Sc3cccc[n+]3[O-])c3nonc23)cc1 . inactive

###

- Tested on: P388 leukemia ip, CD2F1 mice, survival T/C
- ASSAY_PROTOCOL: NCI In Vivo Anticancer Drug Screen. Data for tumor model P388 Leukemia (intraperitoneal) in CD2F1 (CDF1) mice
- CONDITION_DESCRIPTION: endpoint: median survival time; dose: 200.0 mg/kg/injection; schedule: Q01DX009 (ip); vehicle: Klucel (hydroxypropylcellulose) (HPC); higher = longer survival
Toxic doses and inconclusive results are not listed.
ASSAY_ENDPOINT: T/C

// known answers, use as guide
- Cc1ccc(S(=O)(=O)/N=C\[N-][n+]2ccccc2C)cc1: 92 % of control
- C=C1C(=O)OC2CC(C)C3OC3C(=O)C(C)(O)C(O)C(O)C12 (configuration not stated) (tested in a mixture with another compound): 119 % of control
- O=C1/C(=C/c2ccccc2[N+](=O)[O-])CCCc2ccccc21: 105 % of control

Report T/C for Cc1ccc(S(=O)(=O)C2(Sc3ccccc3)SC2C(=O)c2ccccc2)cc1 (configuration not stated) please. 111 % of control

I have this compound here, O=C(NCC(CC(NC(=O)c1ccccc1)C(=O)O)NC(=O)c1ccccc1)c1ccccc1 (configuration not stated) , and I need its recorded T/C. 90 % of control

Recorded T/C for O=C(Nc1ccc(Cl)cc1)OC1CCS(=O)(=O)C1 (configuration not stated) , please? 89 % of control

May I ask what T/C has been recorded for CC(C)SC=O ? 106 % of control

Entry O=C(Nc1ccccc1[N+](=O)[O-])C1C(=O)C(=O)N(c2ccccc2[N+](=O)[O-])C1=O (configuration not stated) has what T/C? 99 % of control

###

- System: P388 leukemia ip, CD2F1 mice, survival T/C
- ASSAY_PROTOCOL: NCI In Vivo Anticancer Drug Screen. Data for tumor model P388 Leukemia (intraperitoneal) in CD2F1 (CDF1) mice
- CONDITION_DESCRIPTION: endpoint: median survival time; dose: 6.25 mg/kg/injection; schedule: Q01DX009 (ip); vehicle: Klucel (hydroxypropylcellulose) (HPC); higher = longer survival
Toxic doses and inconclusive results are not listed.
In this section we review reported T/C values for a set of molecules.

• N#CC1(C#N)C2C=CC(C3CCC=C32)C1(C#N)C#N (stereo not drawn) = 100 % of control

T/C lookup needed for Cn1/c(=N\NC(=O)c2ccncc2)sc2ccccc21 , thanks. 110 % of control

Query (molecule): CC(=O)OC1OC(/C=N\N(C)C)C(OCc2ccccc2)C(OCc2ccccc2)C1OC(C)=O (stereo not drawn) ; field requested: T/C 104 % of control

Would you kindly share the measured T/C for CCSCC1C(=O)C23CC1CCC2C12COC(O)C1C(C)(C)C(O)CC2OC3=O (stereo not drawn) ? 107 % of control

Record request: T/C value, item O=C1c2ccccc2-c2c3c(cc4ccnc1c24)OCO3 101 % of control

Any idea what its T/C is? The molecule is C/C=C/C=C1/OC(C)=C(C(=O)OCC)C1=O 107 % of control

Look at this molecule and give its reported T/C. COc1c2ccoc2nc2c(OC)c3c(cc12)OCO3 105 % of control

So what does the record say about T/C for N#CC(C#N)=NNc1ccc([N+](=O)[O-])cc1Cl ? 103 % of control
